Biological target: canine 5-HT2A receptor (Canis lupus familiaris, UniProt O46635)
Sequence (O46635 whole entry): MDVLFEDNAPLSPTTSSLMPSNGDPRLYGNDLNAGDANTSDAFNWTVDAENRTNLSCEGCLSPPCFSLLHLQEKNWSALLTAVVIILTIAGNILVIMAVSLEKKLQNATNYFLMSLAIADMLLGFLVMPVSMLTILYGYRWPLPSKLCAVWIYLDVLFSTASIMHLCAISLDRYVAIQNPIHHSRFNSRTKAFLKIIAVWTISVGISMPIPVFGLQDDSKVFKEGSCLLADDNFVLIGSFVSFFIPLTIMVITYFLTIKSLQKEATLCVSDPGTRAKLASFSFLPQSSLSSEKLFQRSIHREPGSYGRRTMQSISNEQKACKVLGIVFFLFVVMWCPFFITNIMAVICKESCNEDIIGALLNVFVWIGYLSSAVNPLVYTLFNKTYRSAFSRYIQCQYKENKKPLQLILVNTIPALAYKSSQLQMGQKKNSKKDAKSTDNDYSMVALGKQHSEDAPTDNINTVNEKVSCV
test-readout: Ki

molecule="CSc1ccc2c(c1)C(N1CCN(C)CC1)Cc1ccccc1S2 (stereo not shown) [Methiothepin, methiothepin]" test_readout=Ki measurement="3.55 nM"

* * *

Ki listing for selected compounds.
Molecular target: UniProtKB Q50DZ8
Experiment: biochemical
Assay type: binding
Design: Apparent equilibrium dissociation constant KD; other: canine 5-HT2B, COS-7 membranes, mean ± S.E.M. (n = 3 to 6); other: COS-7 membranes; head prints [^3H]-ketanserin; mean ± S.E.M of 3-8 experiments; KD of radioligand; other: canine 5-HT2B, transfected COS-7 membranes; other: HEK-293, Ca^2+ FLIPR, mean ± S.E.M of 3 to 6 experime
Settings: read-out: Affinity constant pKI c5-HT2B (converted)
test-readout: Ki

chem_smiles=CN1C[C@@H](NS(=O)(=O)N(C)C)C[C@@H]2c3cccc4c3c(cn4C)C[C@H]21 measurement="0.017 µM"
chem_smiles=CN1CCc2cc(Cl)c(O)cc2[C@@H](c2ccccc2)C1 measurement="0.309 µM"
chem_smiles=Cc1cc(NC(=O)Nc2ccc3c(ccn3C)c2)sn1 measurement="0.182 µM"
chem_smiles=CN(C)CCO/N=C(/C=C/c1ccc(O)cc1)c1ccccc1F measurement="1.91 µM"

* * *

Target: canine 5-HT2A receptor (Canis lupus familiaris, UniProt O46635)
Test: biochemical
The entries below are paired with their reported log10 of Ki.
test-readout: log10 of Ki (log10 of the value in nM)

compound=Clc1cccc(N2CCNCC2)c1 test_readout="log10 of Ki" measurement=2.29
compound=O=C(c1ccc(F)cc1)C1CCN(CCn2c(=O)[nH]c3ccccc3c2=O)CC1 test_readout="log10 of Ki" measurement=1.16
compound=CN(C)CCO/N=C(/C=C/c1ccc(O)cc1)c1ccccc1F test_readout="log10 of Ki" measurement=0.00
compound=FC(F)(F)c1cccc(N2CCNCC2)c1 test_readout="log10 of Ki" measurement=2.33
compound="COc1cc(CC(C)N)c(OC)cc1I (centres unmarked)" test_readout="log10 of Ki" measurement=1.08
compound=NCCc1c[nH]c2ccc(C(N)=O)cc12 test_readout="log10 of Ki" measurement=3.36
compound="NCCc1c[nH]c2ccc(O)cc12 [5-HT, 5-hydroxytryptamine]" test_readout="log10 of Ki" measurement=2.25
compound=CN1C[C@@H](NS(=O)(=O)N(C)C)C[C@@H]2c3cccc4c3c(cn4C)C[C@H]21 test_readout="log10 of Ki" measurement=1.96
compound=CN1CCc2cc(Cl)c(O)cc2[C@@H](c2ccccc2)C1 test_readout="log10 of Ki" measurement=1.21
compound=Cc1nc2sccn2c(=O)c1CCN1CCC(=C(c2ccc(F)cc2)c2ccc(F)cc2)CC1 test_readout="log10 of Ki" measurement=0.88

* * *

Target: UniProtKB O46635
Experiment: cell-based
Format: cell-based
Parameters: The resulting 5-HT2A full length cDNA was cloned into the pCIneo vector; expressed in transfected cells
Conditions: HEK-293; fraction of response to 10 μM 5-HT
Measured Rel. eff. c5-HT2A values are reported for all entries that follow.
test-readout: Rel. eff. c5-HT2A

compound=NCCc1c[nH]c2ccc(C(N)=O)cc12 test_readout="Rel. eff. c5-HT2A" measurement=0.94
compound=FC(F)(F)c1cccc(N2CCNCC2)c1 test_readout="Rel. eff. c5-HT2A" measurement=0.72
compound=Clc1cccc(N2CCNCC2)c1 test_readout="Rel. eff. c5-HT2A" measurement=0.71
compound="COc1cc(CC(C)N)c(OC)cc1I (centres unmarked)" test_readout="Rel. eff. c5-HT2A" measurement=0.89
compound="NCCc1c[nH]c2ccc(O)cc12 [5-HT, 5-hydroxytryptamine]" test_readout="Rel. eff. c5-HT2A" measurement=1
